system: HLA-HHDII/DP4 mice; assay: Ex vivo IFNγ ELISpot after peptide immunisation, HHDII/DP4 mice; format: in vivo, mouse
Where no end group is shown, it is not given here. [ ]: non-standard residue; d: D form. hCit = NC(=O)NCCCC[C@H](N)C(=O)O
Property name: IFNγ response in presence of CD4 blocking antibody

Substance: KFASFID-Hcit-VRFLEQQN-Hcit-MLE (KFASFID[hCit]VRFLEQQN[hCit]MLE) [Cyk8 101-120 Hcit]
Test result: inhibited
--
Substance: LREYQELMNV-hcit-LALDIEI (LREYQELMNV[hCit]LALDIEI) [Cyk8 371-388 Hcit]
Test result: inhibited
--
Substance: IGGVILFHETLYQ-hcit-ADDGRP (IGGVILFHETLYQ[hCit]ADDGRP) [Aldolase A 74-93 Hcit]
Test result: significantly reduced
--
Substance: hcit-DGADFA-hcit-WRCVL-hcit-IGEH ([hCit]DGADFA[hCit]WRCVL[hCit]IGEH) [Aldolase A 140-157 Hcit]
Test result: significantly reduced

====

Examples of substances with documented % inhibition follow.
Molecular target: HLA-DP4 (Homo sapiens, UniProt P04440+P20036)
Sequence (P20036 29-260): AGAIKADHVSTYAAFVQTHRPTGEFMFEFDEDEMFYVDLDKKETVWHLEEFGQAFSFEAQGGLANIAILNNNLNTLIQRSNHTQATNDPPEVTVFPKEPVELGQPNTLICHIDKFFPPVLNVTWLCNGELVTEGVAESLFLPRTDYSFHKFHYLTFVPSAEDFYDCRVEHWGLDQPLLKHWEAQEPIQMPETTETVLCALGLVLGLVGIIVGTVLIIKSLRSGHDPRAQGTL
Sequence (P04440 30-258): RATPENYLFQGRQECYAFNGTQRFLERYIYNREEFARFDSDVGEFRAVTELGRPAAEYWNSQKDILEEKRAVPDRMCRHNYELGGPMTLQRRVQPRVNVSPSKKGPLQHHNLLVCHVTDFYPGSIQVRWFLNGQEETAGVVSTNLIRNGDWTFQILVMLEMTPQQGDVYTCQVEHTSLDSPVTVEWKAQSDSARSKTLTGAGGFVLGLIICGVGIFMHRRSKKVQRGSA
Experiment: DP4 competition assay with biotinylated Hep B peptide
Conditions: inhibition of biotinylated Hep B binding to HLA-DP4; 5 fold excess test peptide, equal amount for unlabelled Hep B
Where no end group is shown, it is not given here. [ ]: non-standard residue; d: D form. hCit = NC(=O)NCCCC[C@H](N)C(=O)O

Substance: IGGVILFHETLYQ-hcit-ADDGRP (IGGVILFHETLYQ[hCit]ADDGRP) [Aldolase A 74-93 Hcit]
Study system: HLA-DP4 (Homo sapiens, UniProt P04440+P20036)
Unit of measure: %
% inhibition: 69

Substance: NYIDKVRFLEQQNKILLAEL [Vim 116-135 WT, unmodified wild type vimentin 116-135 peptide, reference compound]
Study system: HLA-DP4 (Homo sapiens, UniProt P04440+P20036)
Unit of measure: %
% inhibition: 48

Substance: EIN-hcit-RTEMENEFVLI-hcit-hcit-DVDE (EIN[hCit]RTEMENEFVLI[hCit][hCit]DVDE) [Cyk8 182-202 Hcit]
Study system: HLA-DP4 (Homo sapiens, UniProt P04440+P20036)
Unit of measure: %
% inhibition: 61

Substance: GFFLLTRILTIPQ [HepB, reference compound]
Study system: HLA-DP4 (Homo sapiens, UniProt P04440+P20036)
Unit of measure: %
% inhibition: 47

Where do the numbers come from? From patent US12458688B2.
